Reference source for all entries: patent US20230212549A1

# method_notes: Pharmacokinetic study in rats (plasma, NCA)
# recorded_conditions: rat, intravenous, 40 nmol/kg
measured_quantity: half-life (min)
Give the number; min is assumed, so skip it.

GET /values?readout=half-life&item= CCCCCC(=O)N[C@H]1CSCc2cc(CSCCNC(=O)CN3CCN(CC(=O)O)CCN(CC(=O)O)CCN(CC(=O)O)CC3)cc(c2)CSC[C@@H](C(=O)O)NC(=O)[C@H](Cc2ccccc2)NC(=O)[C@H](CCC(N)=O)NC(=O)[C@H]([C@@H](C)O)NC(=O)[C@@H]2CCCN2C(=O)[C@@H]2CCCN2C1=O [3BP-3623]
45

---

Exercise: for every item that follows, state its recorded IC50.
# target_system: FAP-expressing human WI-38 fibroblasts (Homo sapiens, UniProt Q12884)
# Construct: FAP-expressing human WI-38 fibroblasts (ECACC) were cultured in EMEM; host or cells: WI-38 human fibroblasts
# Sequence (Q12884 whole entry): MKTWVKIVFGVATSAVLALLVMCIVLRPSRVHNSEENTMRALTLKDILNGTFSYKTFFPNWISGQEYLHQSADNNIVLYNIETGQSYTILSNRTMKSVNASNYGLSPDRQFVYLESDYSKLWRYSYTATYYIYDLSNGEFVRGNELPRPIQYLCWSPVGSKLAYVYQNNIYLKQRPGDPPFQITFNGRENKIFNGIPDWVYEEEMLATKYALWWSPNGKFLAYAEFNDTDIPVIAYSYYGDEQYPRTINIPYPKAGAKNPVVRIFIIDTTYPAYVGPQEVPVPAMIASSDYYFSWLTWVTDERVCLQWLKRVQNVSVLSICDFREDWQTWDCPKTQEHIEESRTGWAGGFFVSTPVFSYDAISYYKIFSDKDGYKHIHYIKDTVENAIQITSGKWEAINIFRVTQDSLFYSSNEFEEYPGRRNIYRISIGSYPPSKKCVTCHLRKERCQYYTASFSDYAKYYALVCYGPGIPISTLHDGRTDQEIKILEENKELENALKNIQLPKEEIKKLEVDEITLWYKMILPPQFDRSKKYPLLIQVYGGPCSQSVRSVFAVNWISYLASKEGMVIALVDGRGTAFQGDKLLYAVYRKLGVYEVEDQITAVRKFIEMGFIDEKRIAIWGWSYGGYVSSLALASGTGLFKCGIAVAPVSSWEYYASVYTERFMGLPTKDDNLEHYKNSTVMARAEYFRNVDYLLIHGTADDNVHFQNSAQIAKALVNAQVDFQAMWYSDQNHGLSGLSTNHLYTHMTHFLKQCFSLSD
# method_notes: Competitive FACS binding assay
Numbered stars: 1 amine (or outer) side, 2 acyl side, 3 side chain; on linkers, the order of the positions; unused ones are H or OH. Bridge positions count the residues as written; N and C are the ends. Square brackets hold non-standard residues; d marks the D form. Peptide text beside a SMILES is read from it. * marks the point of attachment. ξ: configuration not given here. TBMB(SCH2CH2NH-DOTA) = O=C(O)CN1CCN(CC(=O)O)CCN(CC(=O)NCCSCc2cc(C[*:1])cc(C[*:2])c2)CCN(CC(=O)O)CC1; X13 = O=C(O)CN1CCN(CC(=O)O)CCN(CC(=O)N2CCN(Cc3cc(C[*:1])cc(C[*:2])c3)CC2)CCN(CC(=O)O)CC1; X11 = O=C(O)CN1CCN(CC(=O)O)CCN(C(CCC(=O)NCCSCc2cc(C[*:1])cc(C[*:2])c2)C(=O)O)CC1; Pro(4S-NH2) = N[C@@H]1CN[C@H](C(=O)O)C1; 2Nal = N[C@@H](Cc1ccc2ccccc2c1)C(=O)O; mXylylene = c1cc(C[*:1])cc(C[*:2])c1; Hexanoyl = CCCCCC(=O)*; CO = O=C([*:1])[*:2]; ξC = NC(CS)C(=O)O; NHBu = CCCCN*

Can you look up the measured IC50 of CCCCNC(=O)N[C@H]1CSCc2cc(CSCCNC(=O)CCC(C(=O)O)N3CCN(CC(=O)O)CCN(CC(=O)O)CC3)cc(c2)CSCC(C(=O)O)NC(=O)[C@H](Cc2ccccc2)NC(=O)[C@H](CCC(=O)O)NC(=O)[C@H]([C@@H](C)O)NC(=O)[C@@H]2CCCN2C(=O)[C@@H]2CCCN2C1=O (stereo partly drawn) [3BP-4724] ({NHBu-CO}-CPPTEF[ξC]-OH; linker 1-7 via X11) for me?
< 10 nM

So what's the measured IC50 for this one? CCCCCC(=O)N[C@H]1CSCc2cccc(c2)CSC[C@@H](C(N)=O)NC(=O)[C@H](Cc2ccccc2)NC(=O)[C@H](CCC(=O)O)NC(=O)[C@H]([C@@H](C)O)NC(=O)[C@@H]2C[C@H](N)CN2C(=O)[C@@H]2CCCN2C1=O [3BP-3367] (Hexanoyl-CP[Pro(4S-NH2)]TEFC-NH2; linker 1-7 via mXylylene)
> 1000 nM

// returns reported IC50 for input CCCCCC(=O)N[C@H]1CSCc2cc(CSCCNC(=O)CCP(=O)(O)CN3CCN(CP(=O)(O)CO)CCN(CP(=O)(O)CO)CC3)cc(c2)CSCC(C(N)=O)NC(=O)[C@H](Cc2ccccc2)NC(=O)[C@H](CCC(N)=O)NC(=O)[C@H]([C@@H](C)O)NC(=O)[C@@H]2CCCN2C(=O)[C@@H]2CCCN2C1=O (stereo partly drawn)
< 10 nM

# IC50 lookup, item CCCCCC(=O)N[C@H]1CSCc2cc(cc(CN3CCN(C(=O)CN4CCN(CC(=O)O)CCN(CC(=O)O)CCN(CC(=O)O)CC4)CC3)c2)CSC[C@@H](C(=O)N[C@@H](CC(=O)O)C(N)=O)NC(=O)[C@@H]2CCCN2C(=O)[C@@H]2CCCN2C(=O)[C@H]([C@@H](C)O)NC(=O)[C@H](CCC(N)=O)NC(=O)[C@H](Cc2ccccc2)NC1=O [3BP-3855] (Hexanoyl-CFQTPPCD-NH2; linker 1-7 via X13)
> 1000 nM

For CCCCCC(=O)N[C@H]1CSCc2cccc(c2)CSC[C@@H](C(N)=O)NC(=O)[C@H](Cc2ccc3ccccc3c2)NC(=O)[C@H](CCC(=O)O)NC(=O)[C@H]([C@@H](C)O)NC(=O)[C@@H]2CCCN2C(=O)[C@@H]2CCCN2C1=O [3BP-3362] (Hexanoyl-CPPTE[2Nal]C-NH2; linker 1-7 via mXylylene) , what is its reported IC50?
100 to 794 nM

Tell me the measured IC50 of CC(C)CCC(=O)N[C@H]1CSCc2cc(CSCCNC(=O)CN3CCN(CC(=O)O)CCN(CC(=O)O)CCN(CC(=O)O)CC3)cc(c2)CSC[C@@H](C(=O)O)NC(=O)[C@H](Cc2ccccc2)NC(=O)[C@H](CCC(N)=O)NC(=O)[C@H]([C@@H](C)O)NC(=O)[C@@H]2CCCN2C(=O)[C@@H]2CCCN2C1=O , please.
< 10 nM

Entry CCCCNC(=O)N[C@H]1CSCc2cc(CSCCNC(=O)CN3CCN(CC(=O)O)CCN(CC(=O)O)CCN(CC(=O)O)CC3)cc(c2)CSC[C@@H](C(=O)O)NC(=O)[C@H](Cc2ccccc2)NC(=O)[C@H](CCC(N)=O)NC(=O)[C@H]([C@@H](C)O)NC(=O)[C@@H]2CCCN2C(=O)[C@@H]2CCCN2C1=O has what IC50?
< 10 nM

I am curious: what IC50 value has been reported for CCCC[C@H](NC(=O)CCC(=O)NCCCOCCOCCOCCCNC(=O)CCC(C(=O)O)N1CCN(CC(=O)O)CCN(CC(=O)O)CC1)C(=O)N[C@H]1CSCc2cccc(c2)CSCC(C(=O)O)NC(=O)[C@H](Cc2ccccc2)NC(=O)[C@H](CCC(N)=O)NC(=O)[C@H]([C@@H](C)O)NC(=O)[C@@H]2CCCN2C(=O)[C@@H]2CCCN2C1=O (stereo partly drawn) [3BP-4713] ?
10 to 79.4 nM

Record request: IC50 value, item CCCCCC(=O)N[C@H]1CSCc2cc(CSCCNC(=O)CN3CCN(CC(=O)O)CCN(CC(=O)O)CCN(CC(=O)O)CC3)cc(c2)CSC[C@@H](C(=O)O)NC(=O)[C@H](Cc2ccccc2)NC(=O)[C@H](CCC(N)=O)NC(=O)[C@H]([C@@H](C)O)NC(=O)[C@@H]2C[C@@H](O)CN2C(=O)[C@@H]2CCCN2C1=O
< 10 nM

Reported IC50, compound CCCCCC(=O)N[C@H]1CSCc2cc(CSCCNC(=O)CN3CCN(CC(=O)O)CCN(CC(=O)O)CCN(CC(=O)O)CC3)cc(c2)CSC[C@@H](C(=O)N(C)CC(=O)O)NC(=O)[C@H](Cc2ccccc2)NC(=O)[C@H](CCC(N)=O)NC(=O)[C@H]([C@@H](C)O)NC(=O)[C@@H]2CCCN2C(=O)[C@@H]2CCCN2C1=O : ____
< 10 nM

Quick check: IC50 of C[C@@H](O)[C@@H]1NC(=O)[C@@H]2CCCN2C(=O)[C@@H]2CCCN2C(=O)[C@@H](NC(=O)CCCCN)CSCc2cccc(c2)CSC[C@@H](C(N)=O)NC(=O)[C@H](Cc2ccccc2)NC(=O)[C@H](CCC(N)=O)NC1=O ?
> 1000 nM

# get_value(readout='IC50', item= CCCCCC(=O)N[C@H]1CSCc2cc(CSCCNC(=O)CN3CCN(CC(=O)O)CCN(CC(=O)O)CCN(CC(=O)O)CC3)cc(c2)CSC[C@@H](C(=O)NCC(=O)O)NC(=O)[C@H](Cc2ccccc2)NC(=O)[C@H](CCC(N)=O)NC(=O)[C@H]([C@@H](C)O)NC(=O)[C@@H]2CCCN2C(=O)[C@@H]2CCCN2C1=O [3BP-3656] (Hexanoyl-CPPTQFCG-OH; linker 1-7 via TBMB(SCH2CH2NH-DOTA)) )
< 10 nM
